system_under_test: dopamine transporter site (Cavia porcellus)
Construct: tissue NovaScreen (performed the assay); host or cells: guinea pig striatal membranes
Sequence (H0WCX4 1-619): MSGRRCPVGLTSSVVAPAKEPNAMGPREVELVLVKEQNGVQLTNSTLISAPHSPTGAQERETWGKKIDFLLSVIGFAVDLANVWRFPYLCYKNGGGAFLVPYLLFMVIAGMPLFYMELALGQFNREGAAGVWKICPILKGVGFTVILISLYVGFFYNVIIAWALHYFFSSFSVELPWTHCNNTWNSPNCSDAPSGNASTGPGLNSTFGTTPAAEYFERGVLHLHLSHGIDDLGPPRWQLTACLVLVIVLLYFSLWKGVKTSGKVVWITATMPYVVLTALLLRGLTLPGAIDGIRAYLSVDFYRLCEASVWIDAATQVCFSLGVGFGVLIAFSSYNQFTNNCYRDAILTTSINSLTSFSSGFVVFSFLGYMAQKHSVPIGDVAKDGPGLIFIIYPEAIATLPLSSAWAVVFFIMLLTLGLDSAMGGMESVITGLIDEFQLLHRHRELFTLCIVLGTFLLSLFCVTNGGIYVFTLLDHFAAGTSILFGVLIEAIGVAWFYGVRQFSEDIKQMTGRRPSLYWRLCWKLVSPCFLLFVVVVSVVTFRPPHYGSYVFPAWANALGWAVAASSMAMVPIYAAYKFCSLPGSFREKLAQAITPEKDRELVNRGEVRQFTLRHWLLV
protocol: Dopamine reuptake inhibition assay ([3H]WIN 35428 binding, guinea pig striatal membranes)
pKi: −log10 of the molar value.
Listed compounds paired with reported pKi

[
  {
    "compound": "C[C@@H](CN)C(c1cccc(F)c1)c1cccc(F)c1",
    "system_under_test": "dopamine transporter site (Cavia porcellus)",
    "pKi": 6.08
  },
  {
    "compound": "C[C@H](CN)C(c1cccc(F)c1)c1cccc(F)c1",
    "system_under_test": "dopamine transporter site (Cavia porcellus)",
    "pKi": 6.22
  },
  {
    "compound": "NCCC(c1cccc(F)c1)c1cccc(F)c1",
    "system_under_test": "dopamine transporter site (Cavia porcellus)",
    "pKi": 5.52
  },
  {
    "compound": "C[C@H](N)CC(c1cccc(F)c1)c1cccc(F)c1",
    "system_under_test": "dopamine transporter site (Cavia porcellus)",
    "pKi": 5.74
  },
  {
    "compound": "Fc1cccc(C(c2cccc(F)c2)C2CCCNC2)c1 (centres unmarked)",
    "system_under_test": "dopamine transporter site (Cavia porcellus)",
    "pKi": 7.52
  }
]
